Below is a list of entries, each paired with its recorded log10(EC50) value.
- assayed.target: hGLP1R (Homo sapiens)
- Construct: expressed in transfected cells; host or cells: HEK-293 cells carrying a CRE-luciferase reporter gene
- Sequence (P43220 24-463): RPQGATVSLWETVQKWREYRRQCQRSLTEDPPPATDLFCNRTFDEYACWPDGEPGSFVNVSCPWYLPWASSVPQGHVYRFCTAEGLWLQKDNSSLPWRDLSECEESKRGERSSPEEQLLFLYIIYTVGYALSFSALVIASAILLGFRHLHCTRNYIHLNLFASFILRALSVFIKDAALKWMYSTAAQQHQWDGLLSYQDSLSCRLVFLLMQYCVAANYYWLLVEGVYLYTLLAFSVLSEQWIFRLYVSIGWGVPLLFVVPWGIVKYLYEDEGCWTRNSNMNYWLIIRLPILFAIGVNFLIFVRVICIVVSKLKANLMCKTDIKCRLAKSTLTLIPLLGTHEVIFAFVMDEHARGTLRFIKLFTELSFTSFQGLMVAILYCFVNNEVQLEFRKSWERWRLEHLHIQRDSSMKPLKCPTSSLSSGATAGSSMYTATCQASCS
- test: hGLP1R CreLuc reporter gene assay in 0.5% and 100% plasma
- Type: cell-based
- applied.conditions: CreLuc reporter gene assay, 0.5% human plasma; read-out: hGLP1R 0.5% hP
Starred links: 1 amine or outer side, 2 acyl side, 3 side chain; linkers in the order of their positions; H or OH if unused. Non-standard residues stand in square brackets, D forms with d. Groups on a side chain read outwards from the residue. *: point of attachment. C20 diacid = O=C(O)CCCCCCCCCCCCCCCCCCC(=O)*; C18 diacid = O=C(O)CCCCCCCCCCCCCCCCC(=O)*; γGlu = O=C(O)[C@H](CCC(=O)[*:2])N[*:1]; εLys = N[C@@H](CCCCN[*:1])C(=O)[*:2]; β3hQ = NC(=O)CC[C@H](N)CC(=O)O; AEEA = NCCOCCOCC(=O)O; Aib = CC(C)(N)C(=O)O
Values reflect log10 of reported EC50 (nM).

Use the examples below as a reference point.
substance	log10(EC50)
H-Y[Aib]EGTFTSDYSI[Aib]LEKQAQ[Aib]AFVEWLIK([εLys-γGlu-γGlu-γGlu-γGlu-γGlu-γGlu-C20 diacid])GGPSSGVS[Aib]RHYYNWLTRQRY-NH2 [Compound 38]	-1.22
H-Y[Aib]EGTFTSDYSI[Aib]LEKQAQ[Aib]AFVQWLIK([εLys-γGlu-γGlu-γGlu-γGlu-γGlu-C18 diacid])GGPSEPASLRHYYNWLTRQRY-NH2 [Compound 148]	-1.10

Looking up H-Y[Aib]EGTFTSDYSI[Aib]LEKQAQ[Aib]AFVQWLIK([εLys-γGlu-γGlu-γGlu-γGlu-γGlu-γGlu-C20 diacid])GGPSEGASLRHYYNWLTR[β3hQ]RY-NH2 [Compound 186] , I found its log10(EC50) recorded as -0.96

The reported value for H-Y[Aib]EGTFTSDYSI[Aib]LEEQAQ[Aib]AFVEWLIK([εLys-γGlu-γGlu-γGlu-γGlu-C20 diacid])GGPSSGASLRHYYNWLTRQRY-NH2 [Compound 97] in terms of log10(EC50) is -0.82

Measured log10(EC50) of H-Y[Aib]EGTFTSDYSI[Aib]LEKQAQ[Aib]AFVEWLIK([AEEA-AEEA-γGlu-γGlu-γGlu-γGlu-C18 diacid])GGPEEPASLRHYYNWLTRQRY-NH2 [Compound 161] : -0.68

Notebook: H-Y[Aib]EGTFTSDYSI[Aib]LERQAQ[Aib]AFVEWLIK([εLys-γGlu-γGlu-γGlu-γGlu-γGlu-γGlu-C20 diacid])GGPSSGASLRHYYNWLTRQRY-NH2 [Compound 131] , log10(EC50) read as -0.96

For H-Y[Aib]EGTFTSDYSI[Aib]LEKQAQ[Aib]AFVEWLIK([εLys-γGlu-γGlu-γGlu-γGlu-γGlu-γGlu-C20 diacid])GGPSSGALLRHYYNWLTRQRY-NH2 [Compound 197] the substance record lists log10(EC50) as -0.51
